Known herbicidal action (damage rating 0-10), Amaranthus of a selection of molecules
# Test system: Monocotyledonous and dicotyledonous test plants
# Assay explanation: Example B1 herbicidal action, application pre-emergence (Table B1b)
# Format: in vivo
# Run parameters: Amaranthus, 250 g/ha, evaluated after 4 weeks
Readout label: herbicidal action (damage rating 0-10), Amaranthus

Molecule	Observed value
CC(=O)C(c1c(F)cccc1F)S(=O)(=O)C1=NOC(C)(C)C1 (stereo not drawn)	7
CC1(C)CC(S(=O)(=O)C(Br)c2ccccc2-c2ccccc2)=NO1 (stereo not drawn)	5
CC1(C)CC(S(=O)(=O)C(F)(Cl)c2ccccc2F)=NO1 (racemic)	10
Cn1nc(C(F)(F)F)c(C(F)(F)S(=O)(=O)C2=NOC(C)(C)C2)c1OCC(F)F	10
Cn1nc(C(F)(F)F)c(C(F)(Cl)S(=O)(=O)C2=NOC(C)(C)C2)c1OC(F)F (stereo not drawn)	10
CC1(C)CC(S(=O)(=O)C(F)(Cl)c2cc(F)cc(F)c2)=NO1 (stereo not drawn)	10
CC1(C)CC(S(=O)(=O)C(F)(Br)c2c(F)cccc2F)=NO1 (stereo not drawn)	10
CC1(C)CC(S(=O)(=O)C(Br)c2cc(F)ccc2F)=NO1 (stereo not drawn)	7
Cc1cc(C(F)(Cl)S(=O)(=O)C2=NOC(C)(C)C2)no1 (stereo not drawn)	8
Cn1nc(C(F)(F)F)c(C(Cl)S(=O)(=O)C2=NOC(C)(C)C2)c1OCC(F)(F)F (stereo not drawn)	10
CC1(C)CC([S+]([O-])C(c2c(F)cccc2F)C(F)(F)F)=NO1 (stereo not drawn)	0
Cn1nc(C(F)(F)F)c(C(F)(F)S(=O)(=O)C2=NOC(C)(C)C2)c1OC(F)F	10
CC(=O)C(c1c(C(F)(F)F)nn(C)c1OCC(F)(F)F)S(=O)(=O)C1=NOC(C)(C)C1 (stereo not drawn)	4
COc1ccccc1C(Cl)S(=O)(=O)C1=NOC(C)(C)C1 (stereo not drawn)	5
CC1(C)CC(S(=O)(=O)C(F)(F)c2ccccc2SC(F)(F)F)=NO1	10
CC1(C)CC([S+]([O-])C(Cl)c2c(F)cccc2F)=NO1 (mixture of isomers)	8
Cn1nc(C(F)(F)F)c(C(Br)S(=O)(=O)C2=NOC(C)(C)C2)c1OCC(F)(F)F (stereo not drawn)	10
CC1(C)CC(S(=O)(=O)C(Br)c2c(F)cccc2C(F)(F)F)=NO1 (racemic)	10
